Origin of values: patent US20230145793A1

Assay: Test 3: in-vivo pharmacokinetics test in mice (plasma, LC/MS/MS)
Details: mouse, male ICR mice, intravenous (tail vein) 2 mg/kg, read-out: Clearance rate CLz
assayReadout: clearance (mL/min/kg)
Numbers only, in mL/min/kg.

I need clearance for every entry listed below, if you could help.
1. Cc1c(C#N)cccc1-c1nc(N)c(Cl)c(-c2cn(Cc3ccn(C)n3)nn2)n1
2. Cc1c(C#N)cccc1-c1nc(N)c(Cl)c(-c2cn(Cc3cc(C(C)(C)O)n(C)n3)nn2)n1
3. Cc1c(C#N)cccc1-c1nc(N)c(F)c(-c2cn(Cc3ccn(C)n3)nn2)n1

Response given:
6.97
12.1
14.2

For every item below, please supply its clearance.
1. Cc1c(C#N)cccc1-c1nc(N)c(F)c(-c2cn(Cc3ccn(C4CC4)n3)nn2)n1
2. Cc1c(C#N)cccc1-c1nc(N)c(F)c(-c2cn(Cc3ccn(CCF)n3)nn2)n1
3. Cc1c(C#N)cccc1-c1nc(N)c(Cl)c(-c2cn(Cc3cccc(C(C)(C)O)n3)nn2)n1

Response given:
[13.3, 12.7, 9.12]

###

Test: Test 3: in-vivo pharmacokinetics test in mice (plasma, LC/MS/MS)
Details: mouse, po, male ICR mice, intragastric administration 10 mg/kg
Could you please mark rule met for values of Cmax below 9000 ng/mL and rule not met for values at or above it?

Challenge: Is Cmax of Cc1c(C#N)cccc1-c1nc(N)c(Cl)c(-c2cn(Cc3cc(C(C)(C)O)n(C)n3)nn2)n1 strictly below 9000 ng/mL?
Response given: rule not met

Challenge: // query: Cc1c(C#N)cccc1-c1nc(N)c(Cl)c(-c2cn(Cc3ccn(C)n3)nn2)n1
Response given: rule met

Challenge: Let us now turn to Cc1c(C#N)cccc1-c1nc(N)c(F)c(-c2cn(Cc3ccn(C)n3)nn2)n1
Response given: rule met

Challenge: Same question, Cc1c(C#N)cccc1-c1nc(N)c(Cl)c(-c2cn(Cc3cccc(C(C)(C)O)n3)nn2)n1 this time
Response given: rule not met

Challenge: Repeat with Cc1c(C#N)cccc1-c1nc(N)c(F)c(-c2cn(Cc3ccn(CCF)n3)nn2)n1
Response given: rule met

###

Assay: Test 3: in-vivo pharmacokinetics test in mice (plasma, LC/MS/MS)
Conditions: mouse, male ICR mice, intravenous (tail vein) 2 mg/kg, read-out: Area under the curve AUC0-t
assayReadout: AUC(0-t) (ng·h/mL)
Answers are plain numbers, in ng·h/mL.

Hey, quick one: what's AUC(0-t) for each of these?
1. Cc1c(C#N)cccc1-c1nc(N)c(Cl)c(-c2cn(Cc3cccc(C(C)(C)O)n3)nn2)n1
2. Cc1c(C#N)cccc1-c1nc(N)c(F)c(-c2cn(Cc3ccn(C)n3)nn2)n1
3. Cc1c(C#N)cccc1-c1nc(N)c(F)c(-c2cn(Cc3ccn(CCF)n3)nn2)n1
4. Cc1c(C#N)cccc1-c1nc(N)c(Cl)c(-c2cn(Cc3cc(C(C)(C)O)n(C)n3)nn2)n1
5. Cc1c(C#N)cccc1-c1nc(N)c(Cl)c(-c2cn(Cc3ccn(C)n3)nn2)n1
6. Cc1c(C#N)cccc1-c1nc(N)c(F)c(-c2cn(Cc3ccn(C4CC4)n3)nn2)n1

Response given:
1. 3600
2. 2310
3. 2590
4. 2740
5. 4680
6. 2510

###

Field: IC50. Provide a value for each of the compounds that follow.
Biological target: A2A receptor (Homo sapiens)
Construct: host or cells: CHO-K1 (co-expressing Gα15)
Test: Test 2: inhibitory activity to the A2A receptor, cAMP HTRF in CHO-K1/ADORA2A/Gα15 cells, NECA 1 uM
Format: cell-based

Field: example entries. Status: answers known.
Cc1c(C#N)cccc1-c1nc(N)c(F)c(-c2cn(Cc3nc(C(C)(C)O)ccc3O)nn2)n1 | 0.016 µM
Cc1c(C#N)cccc1-c1nc(N)c(F)c(-c2cn(Cc3cccc(C(C)(C)O)n3)nn2)n1 | 0.024 µM
Cc1c(C#N)cccc1-c1cc(-c2cn(Cc3cccc(C(C)(C)O)n3)nn2)nc(N)n1 [Compound D1, reference compound] | 0.065 µM
Cc1c(C#N)cccc1-c1nc(N)c(F)c(-c2cn(Cc3ccn(CC(F)F)n3)nn2)n1 | 0.022 µM
Cc1c(C#N)cccc1-c1nc(N)c(F)c(-c2cn(Cc3ccn(CCF)n3)nn2)n1 | 0.018 µM

Turning now to a further record.
Challenge: Lab note: need IC50 with A2A receptor (Homo sapiens) for entry Cc1c(C#N)cccc1-c1nc(N)c(F)c(-c2cn(Cc3ccn(C4CCOCC4)n3)nn2)n1 , please look it up.
Response given: 0.011 µM

###

Biological target: A2A receptor (Homo sapiens, UniProt P29274)
Construct: host or cells: CHO-K1 (co-expressing Gα15)
Sequence (P29274 whole entry): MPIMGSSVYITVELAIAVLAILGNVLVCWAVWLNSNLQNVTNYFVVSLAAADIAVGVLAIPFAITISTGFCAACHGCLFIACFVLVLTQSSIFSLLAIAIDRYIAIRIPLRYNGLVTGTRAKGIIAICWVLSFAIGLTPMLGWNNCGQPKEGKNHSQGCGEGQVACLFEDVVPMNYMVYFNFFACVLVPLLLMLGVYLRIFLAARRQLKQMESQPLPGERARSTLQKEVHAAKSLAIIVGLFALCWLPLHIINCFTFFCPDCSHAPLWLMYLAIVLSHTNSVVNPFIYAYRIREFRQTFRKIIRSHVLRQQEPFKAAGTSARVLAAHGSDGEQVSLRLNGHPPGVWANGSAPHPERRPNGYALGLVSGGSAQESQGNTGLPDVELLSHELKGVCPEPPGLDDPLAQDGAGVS
Assay: Test 1: inhibitory activity to the A2A receptor, cAMP HTRF in CHO-K1/ADORA2A/Gα15 cells, NECA 50 nM
Type: cell-based
assayReadout: IC50 (µM)
Numbers only, in µM.

Cc1c(C#N)cccc1-c1nc(N)c(F)c(-c2cn(Cc3cccn(C4CC4)c3=O)nn2)n1 | 0.001
Cc1c(C#N)cccc1-c1nc(N)c(F)c(-c2cn(Cc3ccn(CC(F)F)n3)nn2)n1 | 0.001

Please state, for each entry, its recorded IC50.
1. Cc1c(C#N)cccc1-c1nc(N)c(Cl)c(-c2cn(Cc3ccn(C(F)F)n3)nn2)n1
2. Cc1c(C#N)cccc1-c1nc(N)nc(-c2cn(Cc3ccn(C)n3)nn2)c1F
3. Cc1c(C#N)cccc1-c1nc(N)c(F)c(-c2cn(Cc3cc(C)n(C)n3)nn2)n1
4. CC(C)(O)c1cccc(Cn2cc(-c3nc(-c4cccc(C#N)c4)nc4c3OCC(=O)N4)nn2)n1

Response given:
[0.002, 0.063, 0.019, 0.001]

###

Biological target: A2A receptor (Homo sapiens)
Construct: host or cells: CHO-K1 (co-expressing Gα15)
Test: Test 1: inhibitory activity to the A2A receptor, cAMP HTRF in CHO-K1/ADORA2A/Gα15 cells, NECA 50 nM
Assay type: cell-based
Record form. Attribute: IC50. Fill in for each entry.
Give bare numbers, in µM.

Some compounds with recorded IC50:
Cc1c(C#N)cccc1-c1nc(N)c(F)c(-c2cn(Cc3ccn(CCF)n3)nn2)n1 | 0.001
Cc1c(C#N)cccc1-c1nc(N)c(F)c(-c2cn(Cc3cccc(C(C)(C)C#N)n3)nn2)n1 | 0.003
COCc1cccc(Cn2cc(-c3nc(N)nc(-c4cccc(C#N)c4C)c3F)nn2)n1 | 0.079

// below: IC50 requested for another compound
Challenge: IC50 lookup needed for Cc1c(C#N)cccc1-c1nc(N)c(F)c(-c2cn(Cc3cccc(C(C)(O)C(F)(F)F)n3)nn2)n1 (stereo not shown) , thanks.
Response given: 0.004

###

Target: A2A receptor (Homo sapiens, UniProt P29274)
Construct: host or cells: CHO-K1 (co-expressing Gα15)
Assay: Test 1: inhibitory activity to the A2A receptor, cAMP HTRF in CHO-K1/ADORA2A/Gα15 cells, NECA 50 nM
Assay type: cell-based
Answer each item with its documented IC50.
One number for each entry, in µM.

The cases that follow already have their IC50 on record.
Cc1c(C#N)cccc1-c1nc(N)c(F)c(-c2cn(Cc3ccn(C(C)(C)CO)n3)nn2)n1 [Compound L-49] | 0.001
Cc1c(C#N)cccc1-c1nc(N)c(F)c(-c2cn(Cc3cccc(CN4CCOCC4)n3)nn2)n1 [Compound L-70] | 0.002

Hi! Can you tell me IC50 for each of these molecules?
1. COCCn1ccc(Cn2cc(-c3nc(-c4cccc(C#N)c4C)nc(N)c3F)nn2)n1 [Compound L-78]
2. CC(C)(O)c1cccc(Cn2cc(-c3nc(-c4cccc(C#N)c4F)nc(N)c3F)nn2)n1 [Compound L-5]

Response given:
1: 0.003; 2: 0.004

###

Biological target: A2A receptor (Homo sapiens, UniProt P29274)
Construct: host or cells: CHO-K1 (co-expressing Gα15)
Test: Test 1: inhibitory activity to the A2A receptor, cAMP HTRF in CHO-K1/ADORA2A/Gα15 cells, NECA 50 nM
Assay type: cell-based
Each record is given Condition met if its reported IC50 is strictly below 0.003 µM. Records at or above 0.003 µM are given Condition not met.

Cc1c(C#N)cccc1-c1nc(N)c(F)c(-c2cn(Cc3ccn(C4CCOC4)n3)nn2)n1 (stereo not shown) | Condition met
Cc1c(C#N)cccc1-c1nc(N)c(F)c(-c2cn(Cc3ccn(C(C)C)n3)nn2)n1 | Condition met
Cc1c(F)cccc1-c1nc(N)c(F)c(-c2cn(Cc3cccc(C(C)(C)O)n3)nn2)n1 | Condition not met

Challenge: Field: below-cutoff. Rule: recorded IC50 strictly less than 0.003 µM. Subject: Cc1c(C#N)cccc1-c1nc(N)c(F)c(-c2cn(Cc3cccc(C(C)C)n3)nn2)n1
Response given: Condition met

Challenge: Would you kindly repeat that for CCC(C)(O)c1cccc(Cn2cc(-c3nc(-c4cccc(C#N)c4C)nc(N)c3F)nn2)n1 (stereo not shown) ?
Response given: Condition met

Challenge: Cool, now Cc1c(C#N)cccc1-c1nc(N)c(F)c(-c2cn(Cc3ccn(C4CCN(C)C4)n3)nn2)n1 (stereo not shown)
Response given: Condition not met

Challenge: // repeat for Cc1c(C#N)cccc1-c1nc(N)c(Cl)c(-c2cn(Cc3cc[nH]n3)nn2)n1 and report
Response given: Condition not met

Challenge: Same thing, different molecule: Cc1c(C#N)cccc1-c1nc(N)c(F)c(-c2cn(Cc3ccn(CC(N)=O)n3)nn2)n1
Response given: Condition not met
